Molecular target: Bovine milk xanthine oxidase (XO, EC 1.17.3.2) (Bos taurus, UniProt P80457)
Construct: Xanthine oxidase from bovine milk (EC 1.17.3.2); purchased Sigma Aldrich Co., (St. Louis, MO, USA); host or cells: bovine milk
Sequence (P80457 whole entry): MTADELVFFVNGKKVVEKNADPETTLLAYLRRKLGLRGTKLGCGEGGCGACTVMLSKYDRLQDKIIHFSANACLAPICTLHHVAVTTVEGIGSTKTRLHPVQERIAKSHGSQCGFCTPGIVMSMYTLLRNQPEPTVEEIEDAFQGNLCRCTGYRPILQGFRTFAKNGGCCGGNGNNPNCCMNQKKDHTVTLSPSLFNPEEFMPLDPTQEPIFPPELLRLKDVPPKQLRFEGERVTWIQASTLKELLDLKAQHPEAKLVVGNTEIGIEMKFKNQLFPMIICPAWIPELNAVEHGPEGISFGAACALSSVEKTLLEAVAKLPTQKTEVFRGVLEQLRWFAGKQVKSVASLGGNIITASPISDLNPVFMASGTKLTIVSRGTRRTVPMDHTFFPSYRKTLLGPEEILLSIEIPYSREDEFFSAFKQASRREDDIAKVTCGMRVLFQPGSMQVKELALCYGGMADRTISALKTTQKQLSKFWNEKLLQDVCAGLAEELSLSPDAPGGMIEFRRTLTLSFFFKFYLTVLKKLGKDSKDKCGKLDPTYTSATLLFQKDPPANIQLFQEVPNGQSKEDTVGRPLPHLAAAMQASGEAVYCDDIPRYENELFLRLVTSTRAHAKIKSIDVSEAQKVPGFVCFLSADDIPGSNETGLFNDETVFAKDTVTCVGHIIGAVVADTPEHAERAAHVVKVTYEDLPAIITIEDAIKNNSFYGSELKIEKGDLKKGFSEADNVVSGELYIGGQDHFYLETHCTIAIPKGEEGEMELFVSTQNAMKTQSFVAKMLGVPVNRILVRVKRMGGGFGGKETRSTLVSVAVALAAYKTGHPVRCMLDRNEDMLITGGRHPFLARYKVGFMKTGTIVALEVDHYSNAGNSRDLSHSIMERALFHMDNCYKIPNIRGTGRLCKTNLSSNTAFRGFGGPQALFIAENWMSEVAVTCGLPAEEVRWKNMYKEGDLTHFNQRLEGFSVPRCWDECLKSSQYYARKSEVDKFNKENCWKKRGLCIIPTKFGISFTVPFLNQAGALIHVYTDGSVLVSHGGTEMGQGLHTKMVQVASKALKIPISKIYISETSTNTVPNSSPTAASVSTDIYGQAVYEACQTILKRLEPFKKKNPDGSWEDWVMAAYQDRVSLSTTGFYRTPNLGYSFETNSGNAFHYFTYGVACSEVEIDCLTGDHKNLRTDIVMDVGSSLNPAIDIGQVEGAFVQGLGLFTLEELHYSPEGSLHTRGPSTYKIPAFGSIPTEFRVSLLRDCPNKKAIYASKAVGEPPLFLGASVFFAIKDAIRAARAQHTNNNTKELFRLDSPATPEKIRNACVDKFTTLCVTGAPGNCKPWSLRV
Test: Xanthine oxidase inhibition kinetics (Lineweaver–Burk and Dixon plots)
Type: biochemical
Conditions: binding of inhibitor to free enzyme; secondary plot of slope; read-out: KI
assay-metric: Ki (µM)

compound	assay-metric	measured
CC(C)=CCc1cc(-c2coc3cc(O)cc(O)c3c2=O)c(CC=C(C)C)c(O)c1O [Compound 4]	Ki	10.7
CC(C)=CCc1c2c(c(O)c3c(=O)c(-c4ccc(O)c(O)c4)coc13)C=CC(C)(C)O2 [Compound 2, auriculasin]	Ki	10.8

a: C=CC(C)(C)C1=Cc2c(c(CC=C(C)C)c3occ(-c4ccc(O)c(O)c4)c(=O)c3c2O)OC1(C)C [Compound 5, flemiphilippinin A]
b: CC(C)=CCc1c(O)c(CC=C(C)C)c2occ(-c3ccc(O)cc3)c(=O)c2c1O [Compound 7, 8-γ,γ-dimethylallylwighteone]
[Q] Please indicate which item has the smaller measured Ki: a versus b Field: selected label. Fill in the label of the entry you choose.
[A] b
